target: Bcl-XL (Homo sapiens); assay: fluorescence polarization (FP) assay, disruption of the Bcl-XL/BH3 interaction; type: binding; settings: 50 μM acylsulfonamide; disruption of Bcl-XL/BH3 interaction in FP assay; read-out: Percentage Inhibition at 50 μM acylsulfonamide concentrations
Sequence (Q07817 whole entry): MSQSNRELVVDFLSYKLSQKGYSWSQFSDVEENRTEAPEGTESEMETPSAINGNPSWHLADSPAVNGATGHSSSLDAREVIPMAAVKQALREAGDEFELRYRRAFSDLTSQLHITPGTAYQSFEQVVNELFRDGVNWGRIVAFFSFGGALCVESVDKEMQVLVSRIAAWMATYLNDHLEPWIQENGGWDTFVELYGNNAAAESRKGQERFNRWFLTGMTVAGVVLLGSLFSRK
Answer each item with its documented inhibition at 50 µM.
Numeric answer only, unit % assumed.

inhibition at 50 µM reported for this compound "CC1(C)CCN(c2ccc(C(=O)NS(=O)(=O)c3ccc(NCCSc4ccccc4)c([N+](=O)[O-])c3)cc2)CC1" : 100

inhibition at 50 µM reported for this compound "CC(=O)Nc1ccc(S(=O)(=O)NC(=O)c2ccco2)cc1" : 0

inhibition at 50 µM reported for this compound "CC(=O)Nc1ccc(S(=O)(=O)NC(=O)c2cccc([N+](=O)[O-])c2)cc1" : 0

inhibition at 50 µM reported for this compound "COc1cc(OC)cc(C(=O)NS(=O)(=O)c2ccc(CN(CCSc3ccccc3)Cc3ccc(S(=O)(=O)N=[N+]=[N-])cc3)cc2)c1" : 60

inhibition at 50 µM reported for this compound "CC(=O)Nc1ccc(S(=O)(=O)NC(=O)c2ccc(OC(F)(F)F)cc2)cc1" : 0

inhibition at 50 µM reported for this compound "Cc1nc(-c2ccccc2)sc1C(=O)NS(=O)(=O)c1ccc(CN(CCSc2ccccc2)Cc2ccc(S(=O)(=O)N=[N+]=[N-])cc2)cc1" : 22

inhibition at 50 µM reported for this compound "CC(=O)Nc1ccc(S(=O)(=O)NC(=O)c2cccc3ccccc23)cc1" : 0

inhibition at 50 µM reported for this compound COc1cc2c(cc1OC)C(c1ccccc1)N(CC(=O)NS(=O)(=O)c1ccc(CN(C)CCc3ccccc3)cc1)CC2 (centres unmarked) : 25
